# Test system: Parabacteroides distasonis
# Test description: growth AUC relative to DMSO control (median of replicates) (fraction); higher = more growth (less inhibition), active = hit call of the paper
# Condition label: 20 µM; 24 h
Quantity name: growth AUC
// no unit, no text: just the number

Query: growth AUC; subject: CC(C)NS(=O)(=O)NC(=O)c1cc(NC(N)=O)c(F)cc1Cl
1.02

Ok, now O=S(=O)(Cc1ccc(Cl)cc1)c1ccc(Cl)cc1
1

Ok, now COC(=O)C(C)Oc1ccc(Cl)cc1Cl (stereo unspecified)
0.996

Ok, now Oc1ccc2nc(-c3cscn3)[nH]c2c1
1.02

Ok, now COCCOc1ccccc1S(=O)(=O)NC(=O)Nc1nc(OC)nc(OC)n1
0.978

Ok, now Clc1ccc(Sc2cc(Cl)c(Cl)cc2Cl)cc1
1.01

Ok, now CCc1cc(C(=O)O)cc(CC)c1C1C(=O)N2CCOCCN2C1=O
0.99

Ok, now Nc1ccc(S(=O)(=O)Nc2nccs2)cc1
1

Ok, now O=C1NC(=O)c2ccccc21
1.02

Ok, now COC1CCC2(CC1)NC(=O)C(c1cc(C)ccc1C)=C2O (stereo unspecified)
1.01

Ok, now CC1(C)C(C(=O)OC(C#N)c2cccc(Oc3ccccc3)c2)C1C(Br)C(Br)(Br)Br (stereo unspecified)
0.998

====

# System: Parabacteroides distasonis
# Test description: growth AUC relative to DMSO control (median of replicates) (fraction); higher = more growth (less inhibition), active = hit call of the paper
# Condition label: 20 µM; 24 h
Provide the recorded growth AUC for the entries that follow.
// no unit, no text: just the number

Query: growth AUC; subject: CCOC(=O)Nc1cccc(OC(=O)Nc2cccc(C)c2)c1
0.913

Ok, now CCc1nc2ncnn2c(N)c1CCCC(=O)O.Cl
0.991

Ok, now CCNc1nc(N)nc(Cl)n1
1.02

Ok, now O=C(O)COc1ccc(Cl)c2cccnc12
1

Ok, now CCOc1ccc(NC(=O)OC(C)C)cc1OCC
0.989

Ok, now CCOC(=O)CSc1nc(C(C)(C)C)nn1C(=O)N(C)C
0.896

Ok, now CCCCCCCCSCCO
0.915

Ok, now CNc1nc(NC(C)C)nc(SC)n1
0.985

Ok, now O=C(O)COc1ccc(Cl)cc1CO
0.91

Ok, now CCc1cccc(C)c1N(C(=O)C(=O)O)C(C)COC (configuration not stated)
1.02

Ok, now CCc1cccc(CC)c1N(COC)C(=O)CS(=O)(=O)[O-].[Na+]
1

Ok, now O=C1NCC[n+]2ccccc21.[Br-]
0.923

Ok, now CN(C)C(=O)c1cccnc1S(N)(=O)=O
1.01

Ok, now CC(C)(CO)C(O)(CCc1ccc(Cl)cc1)Cn1cncn1 (configuration not stated)
0.88

Ok, now COc1nc(NC(=O)NS(=O)(=O)c2ccccc2C(F)(F)F)nc(C(F)(F)F)n1
0.996

Ok, now CC(C)CCCCCOC(=O)C(C)Oc1ccc(Cl)cc1Cl (configuration not stated)
0.925

Ok, now CCCOC(=O)c1ccc(O)cc1
1.01

====

# Tested on: Fusobacterium nucleatum subsp. animalis
# Test description: growth AUC relative to DMSO control (median of replicates) (fraction); higher = more growth (less inhibition), active = hit call of the paper
# Condition label: 20 µM; 24 h
Label yes for high-side growth AUC (at or above 1) and no for low-side growth AUC (below it).

Entry CCOC(N)=O : is its growth AUC no less than 1?
yes

Ok, now CC(C)N(C(=O)CS(=O)CC(=O)O)c1ccc(F)cc1 (stereo unspecified)
no

Ok, now FC(F)(F)C(=NOCC1OCCO1)c1ccc(Cl)cc1
yes

Ok, now O=C(O)COc1ccc(Cl)c2cccnc12
yes

Ok, now Nc1ccc(S(=O)(=O)Nc2cnc3ccccc3n2)cc1
no

Ok, now CC(C)Nc1nc(N)nc(Cl)n1
yes

Ok, now Nc1ccc(O)cc1
yes

Ok, now CNC(=O)Sc1ccc(OS(C)(=O)=O)cc1
yes

Ok, now NC1=C(Cl)C(=O)c2ccccc2C1=O
yes

Ok, now COc1cc(OC)c(Cl)cc1N
yes

Ok, now NC(=O)c1c(Cl)cccc1Cl
yes

Ok, now c1cc2ccc3ccc4ccc5cccc6c(c1)c2c3c4c56
no

Ok, now CCC/C(=N\OCC)C1=C(O)CC(C2CCCSC2)CC1=O (stereo unspecified)
yes

Ok, now O=S(=O)(Oc1ccc(Cl)cc1Cl)c1ccccc1
no

Ok, now CC(C)CNC(=O)N1CCNC1=O
yes

Ok, now c1ccc2c(c1)-c1cccc3c1c-2cc1ccccc13
yes

Ok, now S=C([S-])NCCNC(=S)[S-].[Mn+2]
yes

Ok, now CCOCCOC(=O)C(C)Oc1ccc(Oc2ncc(C(F)(F)F)cc2Cl)cc1 (stereo unspecified)
yes
